For each record, write down the corresponding MIC.
# System: Pseudomonas aeruginosa
# method-description: Antibacterial activity against Pseudomonas aeruginosa PAO1 DSM 19880 (ATCC 15692) after 48 hrs by microdilution method
# Type: functional

Recall the recorded MIC for CC(C)(C)c1cc(NC(=O)c2ccc(C(=O)NCCN)cc2)cc(C(C)(C)C)c1.Cl with Pseudomonas aeruginosa and state it.
16 µg/mL

Continue with CC(C)(C)c1cc(C(=O)Nc2cccc(C(=O)NCCN)c2)cc(C(C)(C)C)c1.Cl
16 µg/mL

Continue with CC(C)(C)c1cc(C(=O)Nc2ccc(C(=O)NCCCN)cc2)cc(C(C)(C)C)c1.Cl
32 µg/mL

Continue with CC(C)(C)c1cc(C(=O)Nc2ccccc2C(=O)NCCNC(=N)N)cc(C(C)(C)C)c1.Cl
16 µg/mL

Continue with CN(C(=O)c1cc(C(C)(C)C)cc(C(C)(C)C)c1)c1ccc(C(=O)NCCCN)cc1.Cl
> 128 µg/mL

Continue with CN(C(=O)c1cc(C(C)(C)C)cc(C(C)(C)C)c1)c1ccc(C(=O)NCCNC(=N)N)cc1.Cl
128 µg/mL

* * *

# Test system: Enterococcus sp.
# method-description: Antibacterial activity against Enterococcus sp. clinical isolate after 24 hrs by microdilution method
# Assay type: functional
For each record, write down the corresponding MIC.

Request the reported MIC associated with CC(C)(C)c1cc(C(=O)Nc2cc3ccccc3cc2C(=O)NCCN)cc(C(C)(C)C)c1.Cl
2 µg/mL

Continue with CC(C)(C)c1cc(C(=O)Nc2ccccc2C(=O)NCCN)cc(C(C)(C)C)c1.Cl
8 µg/mL

Continue with CC(C)(C)c1cc(C(=O)Nc2ccc(C(=O)NCCNC(=N)N)cc2)cc(C(C)(C)C)c1.Cl
8 µg/mL

Continue with CC(C)(C)c1cc(C(=O)Nc2cc3ccccc3cc2C(=O)NCCNC(=N)N)cc(C(C)(C)C)c1.Cl
8 µg/mL

Continue with CC(C)(C)c1cc(C(=O)Nc2ccccc2C(=O)NCCNC(=N)N)cc(C(C)(C)C)c1.Cl
8 µg/mL

Source listed as ChEMBL document CHEMBL3862007.
